conditions: buffer, pH 7.4
parameter.measured: CHI

I: CC(=O)Nc1ccc(C(=O)NCCCN)cc1OCC1CCOCC1
II: CC(=O)Nc1ccc(C(=O)NCCCN)cc1OCc1cccnc1
Prompt line: // max by CHI over [ I , II ] Output the label that corresponds to your choice.
Response line: I
(I: 0.4, II: 0.2)

P: CC(=O)Nc1ccc(C(=O)N[C@H]2CC[C@H](O)CC2)cc1O[C@@H](C)c1ccccc1
Q: COc1ccc(COc2cc(C(=O)NCCCN)ccc2NC(C)=O)cc1
Prompt line: // max by CHI over [ P , Q ] Output the label that corresponds to your choice.
Response line: P
(P: 3.1, Q: 1.3)
